assayOverview: yeast display, Sf9 membrane polyspecificity reagent, FACS + sequencing; frameworks hold sequencing errors
reportedProperty: polyreactivity (PSR sort gate)

inputSequence | reportedProperty | result
QVQLVESGGGLVQAGGSLRLSCAASGSIFLDYAMGWYRQAPGKERELVDGITISGGSTYYADSVKGRFTISRDNAKNTVYLQMNSLKPEYTAVYYCAKVAPRSSSSQEYYYWGQGTQVTVSS | polyreactivity (PSR sort gate) | low polyreactivity
QVQLVESGGGLVQAGGSLRLSCAASGFTFRDYAMGWYRQAPGKEREFIADITFSGDNTRYADSVKGRFTISRDNAKNTVYLQMNSLKREDTAVYYCNADYLVSWLQFDYWGQGTQVTVSS | polyreactivity (PSR sort gate) | low polyreactivity
QVQLVDSGGGLVQAGGSLRLSCAASGRTFHKYAMGWYRQAPGKERELVAAISNGGRTYYADSVKGRFTISRDNAKNTLYLQMNSLKPEDTAVYYCNADRTWKGRQYDYWGQGTQVTVSS | polyreactivity (PSR sort gate) | high polyreactivity
QVQLVESGGGLVQAGGSLRLSCAASGSTFTIYAMGGYRQAPGKERELVAAITRGGSTNYADSVKGRFTISRDNAKNTVYLQMNSLKPEDTAVYYCNKVVPGYSAAKYDYWGQGTQVTVSS | polyreactivity (PSR sort gate) | high polyreactivity
QVQLVESGGGLVQAGGSLRLSCAASGFTFSLNTMGWYRQAPGKERELVAAINSGDSTYADSVKGRFTISRDNAKNTVYLQMNSLKPEDTAVYYCNADPDWWYPYNYWGLGTQVTVSS | polyreactivity (PSR sort gate) | low polyreactivity

Recorded values, source the nanobody polyreactivity screen of Harvey et al. (2022).
